Ref: the supplement of paper PMC8617591

- Tested on: Mycobacterium tuberculosis Erdman (autoluminescent)
- assay: FIC50 (Loewe) at 50% inhibition (log2); higher = more antagonistic
- experimental setup: in vitro model: dormancy (butyrate + nitrate, low O2); time point: constant (~7 days, model-specific)
measurement name: FIC50

>>> observed_result("CC[C@@H](CO)NCCN[C@@H](CC)CO [ethambutol] + CO[C@H]1/C=C/O[C@@]2(C)Oc3c(C)c(O)c4c(O)c(c(/C=N/N5CCN(C)CC5)c(O)c4c3C2=O)NC(=O)/C(C)=C\\C=C\\[C@H](C)[C@H](O)[C@@H](C)[C@@H](O)[C@@H](C)[C@H](OC(C)=O)[C@@H]1C [rifampicin]")
-0.0202
>>> observed_result("COc1nc2ccc(Br)cc2cc1[C@@H](c1ccccc1)[C@@](O)(CCN(C)C)c1cccc2ccccc12 [bedaquiline] + NNC(=O)c1ccncc1 [isoniazid]")
0.646
>>> observed_result("CC(=O)NC[C@H]1CN(c2ccc(N3CCOCC3)c(F)c2)C(=O)O1 [linezolid] + NC(=O)c1cnccn1 [pyrazinamide]")
0.507
>>> observed_result("NNC(=O)c1ccncc1 [isoniazid] + CO[C@H]1/C=C/O[C@@]2(C)Oc3c(C)c(O)c4c(O)c(c(/C=N/N5CCN(C)CC5)c(O)c4c3C2=O)NC(=O)/C(C)=C\\C=C\\[C@H](C)[C@H](O)[C@@H](C)[C@@H](O)[C@@H](C)[C@H](OC(C)=O)[C@@H]1C [rifampicin]")
-0.181
>>> observed_result("COc1nc2ccc(Br)cc2cc1[C@@H](c1ccccc1)[C@@](O)(CCN(C)C)c1cccc2ccccc12 [bedaquiline] + O=[N+]([O-])c1cn2c(n1)OC[C@@H](OCc1ccc(OC(F)(F)F)cc1)C2 [pretomanid]")
-0.341
>>> observed_result("O=[N+]([O-])c1cn2c(n1)OC[C@@H](OCc1ccc(OC(F)(F)F)cc1)C2 [pretomanid] + CO[C@H]1/C=C/O[C@@]2(C)Oc3c(C)c(O)c4c(O)c(c(/C=N/N5CCN(C)CC5)c(O)c4c3C2=O)NC(=O)/C(C)=C\\C=C\\[C@H](C)[C@H](O)[C@@H](C)[C@@H](O)[C@@H](C)[C@H](OC(C)=O)[C@@H]1C [rifampicin]")
0.23

# batch size: 2; output FIC50 per entry
1. COc1c(N2C[C@@H]3CCCN[C@@H]3C2)c(F)cc2c(=O)c(C(=O)O)cn(C3CC3)c12 [moxifloxacin] + CO[C@H]1/C=C/O[C@@]2(C)Oc3c(C)c(O)c4c(O)c(c(/C=N/N5CCN(C)CC5)c(O)c4c3C2=O)NC(=O)/C(C)=C\C=C\[C@H](C)[C@H](O)[C@@H](C)[C@@H](O)[C@@H](C)[C@H](OC(C)=O)[C@@H]1C [rifampicin]
2. COc1nc2ccc(Br)cc2cc1[C@@H](c1ccccc1)[C@@](O)(CCN(C)C)c1cccc2ccccc12 [bedaquiline] + CO[C@H]1/C=C/O[C@@]2(C)Oc3c(C)c(O)c4c(O)c(c(/C=N/N5CCN(C6CCCC6)CC5)c(O)c4c3C2=O)NC(=O)/C(C)=C\C=C\[C@H](C)[C@H](O)[C@@H](C)[C@@H](O)[C@@H](C)[C@H](OC(C)=O)[C@@H]1C [rifapentine]

[0.513, 0.549]

====

- Tested on: Mycobacterium tuberculosis Erdman (autoluminescent)
- assay: AUC25, normalised area under dose response up to IC25 (three-drug combination) (fraction (0-1)); higher = more potent at low dose
- experimental setup: in vitro model: butyrate; time point: terminal (~4-5 doublings, model-specific)
Give measured AUC25 for each item. Keep answers brief.
One number for each entry.

>>> observed_result("CC(C)/N=c1\\cc2n(-c3ccc(Cl)cc3)c3ccccc3nc-2cc1Nc1ccc(Cl)cc1 [clofazimine] + NNC(=O)c1ccncc1 [isoniazid] + CO[C@H]1/C=C/O[C@@]2(C)Oc3c(C)c(O)c4c(O)c(c(/C=N/N5CCN(C6CCCC6)CC5)c(O)c4c3C2=O)NC(=O)/C(C)=C\\C=C\\[C@H](C)[C@H](O)[C@@H](C)[C@@H](O)[C@@H](C)[C@H](OC(C)=O)[C@@H]1C [rifapentine]")
0.0792
>>> observed_result("COc1nc2ccc(Br)cc2cc1[C@@H](c1ccccc1)[C@@](O)(CCN(C)C)c1cccc2ccccc12 [bedaquiline] + NC(=O)c1cnccn1 [pyrazinamide] + CO[C@H]1/C=C/O[C@@]2(C)Oc3c(C)c(O)c4c(O)c(c(/C=N/N5CCN(C)CC5)c(O)c4c3C2=O)NC(=O)/C(C)=C\\C=C\\[C@H](C)[C@H](O)[C@@H](C)[C@@H](O)[C@@H](C)[C@H](OC(C)=O)[C@@H]1C [rifampicin]")
0.11

# batch size: 5; output AUC25 per entry
1. CC(C)/N=c1\cc2n(-c3ccc(Cl)cc3)c3ccccc3nc-2cc1Nc1ccc(Cl)cc1 [clofazimine] + NC(=O)c1cnccn1 [pyrazinamide] + CO[C@H]1/C=C/O[C@@]2(C)Oc3c(C)c(O)c4c(O)c(c(/C=N/N5CCN(C)CC5)c(O)c4c3C2=O)NC(=O)/C(C)=C\C=C\[C@H](C)[C@H](O)[C@@H](C)[C@@H](O)[C@@H](C)[C@H](OC(C)=O)[C@@H]1C [rifampicin]
2. CC[C@@H](CO)NCCN[C@@H](CC)CO [ethambutol] + NNC(=O)c1ccncc1 [isoniazid] + CO[C@H]1/C=C/O[C@@]2(C)Oc3c(C)c(O)c4c(O)c(c(/C=N/N5CCN(C)CC5)c(O)c4c3C2=O)NC(=O)/C(C)=C\C=C\[C@H](C)[C@H](O)[C@@H](C)[C@@H](O)[C@@H](C)[C@H](OC(C)=O)[C@@H]1C [rifampicin]
3. CC[C@@H](CO)NCCN[C@@H](CC)CO [ethambutol] + NC(=O)c1cnccn1 [pyrazinamide] + CO[C@H]1/C=C/O[C@@]2(C)Oc3c(C)c(O)c4c(O)c(c(/C=N/N5CCN(C)CC5)c(O)c4c3C2=O)NC(=O)/C(C)=C\C=C\[C@H](C)[C@H](O)[C@@H](C)[C@@H](O)[C@@H](C)[C@H](OC(C)=O)[C@@H]1C [rifampicin]
4. COc1nc2ccc(Br)cc2cc1[C@@H](c1ccccc1)[C@@](O)(CCN(C)C)c1cccc2ccccc12 [bedaquiline] + CC(=O)NC[C@H]1CN(c2ccc(N3CCOCC3)c(F)c2)C(=O)O1 [linezolid] + O=[N+]([O-])c1cn2c(n1)OC[C@@H](OCc1ccc(OC(F)(F)F)cc1)C2 [pretomanid]
5. COc1nc2ccc(Br)cc2cc1[C@@H](c1ccccc1)[C@@](O)(CCN(C)C)c1cccc2ccccc12 [bedaquiline] + CC(=O)NC[C@H]1CN(c2ccc(N3CCOCC3)c(F)c2)C(=O)O1 [linezolid] + NC(=O)c1cnccn1 [pyrazinamide]

1. 0.0935
2. 0.0612
3. 0.0793
4. 0.0754
5. 0.0821

====

- System: Mycobacterium tuberculosis Erdman (autoluminescent)
- assay: FIC50 (Loewe) at 50% inhibition (log2); higher = more antagonistic
- experimental setup: in vitro model: dormancy (butyrate + nitrate, low O2); time point: terminal (~4-5 doublings, model-specific)
I would appreciate it if you labelled entries criterion met when FIC50 is 0.5 or higher, otherwise criterion not met.

Example entries begin here.
>>> label("COc1nc2ccc(Br)cc2cc1[C@@H](c1ccccc1)[C@@](O)(CCN(C)C)c1cccc2ccccc12 [bedaquiline] + COc1c(N2C[C@@H]3CCCN[C@@H]3C2)c(F)cc2c(=O)c(C(=O)O)cn(C3CC3)c12 [moxifloxacin]")
"criterion met"
>>> label("NNC(=O)c1ccncc1 [isoniazid] + NC(=O)c1cnccn1 [pyrazinamide]")
"criterion not met"
>>> label("CC(C)/N=c1\\cc2n(-c3ccc(Cl)cc3)c3ccccc3nc-2cc1Nc1ccc(Cl)cc1 [clofazimine] + COc1c(N2C[C@@H]3CCCN[C@@H]3C2)c(F)cc2c(=O)c(C(=O)O)cn(C3CC3)c12 [moxifloxacin]")
"criterion met"

Determine whether this molecule has FIC50 no lower than 0.5: CC(C)/N=c1\cc2n(-c3ccc(Cl)cc3)c3ccccc3nc-2cc1Nc1ccc(Cl)cc1 [clofazimine] + O=[N+]([O-])c1cn2c(n1)OC[C@@H](OCc1ccc(OC(F)(F)F)cc1)C2 [pretomanid]
criterion not met

Determine whether this molecule has FIC50 no lower than 0.5: CC(=O)NC[C@H]1CN(c2ccc(N3CCOCC3)c(F)c2)C(=O)O1 [linezolid] + COc1c(N2C[C@@H]3CCCN[C@@H]3C2)c(F)cc2c(=O)c(C(=O)O)cn(C3CC3)c12 [moxifloxacin]
criterion met

Determine whether this molecule has FIC50 no lower than 0.5: CC[C@@H](CO)NCCN[C@@H](CC)CO [ethambutol] + O=[N+]([O-])c1cn2c(n1)OC[C@@H](OCc1ccc(OC(F)(F)F)cc1)C2 [pretomanid]
criterion not met

Determine whether this molecule has FIC50 no lower than 0.5: NNC(=O)c1ccncc1 [isoniazid] + CO[C@H]1/C=C/O[C@@]2(C)Oc3c(C)c(O)c4c(O)c(c(/C=N/N5CCN(C6CCCC6)CC5)c(O)c4c3C2=O)NC(=O)/C(C)=C\C=C\[C@H](C)[C@H](O)[C@@H](C)[C@@H](O)[C@@H](C)[C@H](OC(C)=O)[C@@H]1C [rifapentine]
criterion not met
